System: Prevotella nigrescens
Assay: Antimicrobial activity in Prevotella nigrescens by CLSI agar dilution method
Assay type: functional
Experimental Readout: MIC50 (µg/mL)
Lab book: enter the figure in µg/mL, no units written.

Cc1ncc([N+](=O)[O-])n1CCO = 0.5

Attention now shifts to the item below.
q: Which MIC50 reading was recorded for the compound `C[C@@H](O)[C@H]1C(=O)N2C(C(=O)O)=C(S[C@H]3CC[S@@+]([O-])C3)S[C@H]12` ?
a: 0.06

* * *

Test system: Fusobacterium nucleatum
Assay: Antimicrobial activity in Fusobacterium nucleatum by CLSI agar dilution method
Type: functional
# MIC50 values compiled below
Lab book: enter the figure in µg/mL, no units written.

C[C@@H](O)[C@H]1C(=O)N2C(C(=O)O)=C(SCCNC=N)C[C@H]12 [IMIPENEM ANHYDROUS] = 0.03

Attention now shifts to the item below.
q: Which MIC50 reading was recorded for the compound `CCC[C@@H]1C[C@@H](C(=O)N[C@@H]([C@H]2O[C@H](SC)[C@H](O)[C@@H](O)[C@H]2O)[C@H](C)Cl)N(C)C1` ?
a: 0.06

* * *

Tested on: Paraclostridium bifermentans
Experiment: Antimicrobial activity in Clostridium bifermentans by CLSI agar dilution method
Assay type: functional
Experimental Readout: MIC (µg/mL)
Lab book: enter the figure in µg/mL, no units written.

Would you please look over these solved cases?
CCC[C@@H]1C[C@@H](C(=O)N[C@@H]([C@H]2O[C@H](SC)[C@H](O)[C@@H](O)[C@H]2O)[C@H](C)Cl)N(C)C1 = 0.125
C[C@@H](O)[C@H]1C(=O)N2C(C(=O)O)=C(S[C@H]3CC[S@@+]([O-])C3)S[C@H]12 = 0.5
C[C@@H](O)[C@H]1C(=O)N2C(C(=O)O)=C(SCCNC=N)C[C@H]12 [IMIPENEM ANHYDROUS] = 0.25

Attention now shifts to the item below.
q: Which MIC reading was recorded for the compound `Cc1ncc([N+](=O)[O-])n1CCO` ?
a: 0.25

* * *

System: Actinomyces
Assay: Antimicrobial activity in Actinomyces by CLSI agar dilution method
Format: functional
Experimental Readout: MIC50 (µg/mL)
Lab book: enter the figure in µg/mL, no units written.

Would you please look over these solved cases?
C[C@@H](O)[C@H]1C(=O)N2C(C(=O)O)=C(SCCNC=N)C[C@H]12 [IMIPENEM ANHYDROUS] = 0.125
CCC[C@@H]1C[C@@H](C(=O)N[C@@H]([C@H]2O[C@H](SC)[C@H](O)[C@@H](O)[C@H]2O)[C@H](C)Cl)N(C)C1 [CLINDAMYCIN] = 0.125

q: Which MIC50 reading was recorded for the molecule C[C@@H](O)[C@H]1C(=O)N2C(C(=O)O)=C(S[C@H]3CC[S@@+]([O-])C3)S[C@H]12 [SULOPENEM] ?
a: 0.5

* * *

System: Parvimonas micra
Test: Antimicrobial activity in Micromonas micros by CLSI agar dilution method
Type: functional
Experimental Readout: MIC90 (µg/mL)
Lab book: enter the figure in µg/mL, no units written.

q: Which MIC90 reading was recorded for the compound C[C@@H](O)[C@H]1C(=O)N2C(C(=O)O)=C(SCCNC=N)C[C@H]12 [IMIPENEM ANHYDROUS] ?
a: 0.06

q: Item: `Cc1ncc([N+](=O)[O-])n1CCO`
a: 0.5

q: Item: `C[C@@H](O)[C@H]1C(=O)N2C(C(=O)O)=C(S[C@H]3CC[S@@+]([O-])C3)S[C@H]12`
a: 0.125

q: Item: `CCC[C@@H]1C[C@@H](C(=O)N[C@@H]([C@H]2O[C@H](SC)[C@H](O)[C@@H](O)[C@H]2O)[C@H](C)Cl)N(C)C1`
a: 0.25

* * *

# MIC50 values compiled below
Tested on: Prevotella melaninogenica
Test: Antimicrobial activity in Prevotella melaninogenica by CLSI agar dilution method
Assay type: functional
Lab book: enter the figure in µg/mL, no units written.

C[C@@H](O)[C@H]1C(=O)N2C(C(=O)O)=C(SCCNC=N)C[C@H]12 [IMIPENEM ANHYDROUS] = 0.03
C[C@@H](O)[C@H]1C(=O)N2C(C(=O)O)=C(S[C@H]3CC[S@@+]([O-])C3)S[C@H]12 [SULOPENEM] = 0.125

q: Which MIC50 reading was recorded for the compound Cc1ncc([N+](=O)[O-])n1CCO [METRONIDAZOLE] ?
a: 0.5

* * *

Tested on: Prevotella bergensis
Assay: Antimicrobial activity in Prevotella bergensis by CLSI agar dilution method
Assay type: functional
Settings: Hallella bergensis
Experimental Readout: MIC (mg/L)
Lab book: enter the figure in mg/L, no units written.

Would you please look over these solved cases?
C[C@@H](O)[C@H]1C(=O)N2C(C(=O)O)=C(S[C@H]3CC[S@@+]([O-])C3)S[C@H]12 [SULOPENEM] = 0.125
C[C@@H](O)[C@H]1C(=O)N2C(C(=O)O)=C(SCCNC=N)C[C@H]12 [IMIPENEM ANHYDROUS] = 0.06

Attention now shifts to the item below.
q: Which MIC reading was recorded for the compound Cc1ncc([N+](=O)[O-])n1CCO [METRONIDAZOLE] ?
a: 0.5

* * *

System: Prevotella intermedia
Assay: Antimicrobial activity in Prevotella intermedia by CLSI agar dilution method
Assay type: functional
Experimental Readout: MIC50 (µg/mL)
Lab book: enter the figure in µg/mL, no units written.

Cc1ncc([N+](=O)[O-])n1CCO [METRONIDAZOLE] = 0.5

Attention now shifts to the item below.
q: Identify the measured MIC50 of C[C@@H](O)[C@H]1C(=O)N2C(C(=O)O)=C(S[C@H]3CC[S@@+]([O-])C3)S[C@H]12 [SULOPENEM] for Prevotella intermedia.
a: 0.06

* * *

Tested on: Clostridioides difficile
Assay: Antimicrobial activity in Clostridium difficile by CLSI agar dilution method
Format: functional
Experimental Readout: MIC50 (µg/mL)
Lab book: enter the figure in µg/mL, no units written.

Would you please look over these solved cases?
Cc1ncc([N+](=O)[O-])n1CCO [METRONIDAZOLE] = 0.5
CCC[C@@H]1C[C@@H](C(=O)N[C@@H]([C@H]2O[C@H](SC)[C@H](O)[C@@H](O)[C@H]2O)[C@H](C)Cl)N(C)C1 [CLINDAMYCIN] = 4
C[C@@H](O)[C@H]1C(=O)N2C(C(=O)O)=C(S[C@H]3CC[S@@+]([O-])C3)S[C@H]12 [SULOPENEM] = 2

q: Which MIC50 reading was recorded for the molecule C[C@@H](O)[C@H]1C(=O)N2C(C(=O)O)=C(SCCNC=N)C[C@H]12 [IMIPENEM ANHYDROUS] ?
a: 4

* * *

System: Phocaeicola vulgatus
Test: Antimicrobial activity in Bacteroides vulgatus by CLSI agar dilution method
Type: functional
# MIC50 values compiled below

Would you please look over these solved cases?
Cc1ncc([N+](=O)[O-])n1CCO [METRONIDAZOLE] = 0.5 µg/mL
C[C@@H](O)[C@H]1C(=O)N2C(C(=O)O)=C(SCCNC=N)C[C@H]12 [IMIPENEM ANHYDROUS] = 0.5 µg/mL
C[C@@H](O)[C@H]1C(=O)N2C(C(=O)O)=C(S[C@H]3CC[S@@+]([O-])C3)S[C@H]12 [SULOPENEM] = 0.5 µg/mL

Attention now shifts to the item below.
q: Identify the measured MIC50 of CCC[C@@H]1C[C@@H](C(=O)N[C@@H]([C@H]2O[C@H](SC)[C@H](O)[C@@H](O)[C@H]2O)[C@H](C)Cl)N(C)C1 [CLINDAMYCIN] for Phocaeicola vulgatus.
a: 0.03 µg/mL

* * *

# MIC values compiled below
Test system: Clostridium tertium
Experiment: Antimicrobial activity in Clostridium tertium by CLSI agar dilution method
Type: functional
Lab book: enter the figure in µg/mL, no units written.

CCC[C@@H]1C[C@@H](C(=O)N[C@@H]([C@H]2O[C@H](SC)[C@H](O)[C@@H](O)[C@H]2O)[C@H](C)Cl)N(C)C1 [CLINDAMYCIN] = 8
C[C@@H](O)[C@H]1C(=O)N2C(C(=O)O)=C(SCCNC=N)C[C@H]12 [IMIPENEM ANHYDROUS] = 0.25

q: Which MIC reading was recorded for the compound Cc1ncc([N+](=O)[O-])n1CCO [METRONIDAZOLE] ?
a: 0.5

q: Item: C[C@@H](O)[C@H]1C(=O)N2C(C(=O)O)=C(S[C@H]3CC[S@@+]([O-])C3)S[C@H]12 [SULOPENEM]
a: 1

* * *

System: Hoylesella loescheii
Test: Antimicrobial activity in Prevotella loescheii by CLSI agar dilution method
Format: functional
Experimental Readout: MIC (µg/mL)
Lab book: enter the figure in µg/mL, no units written.

Would you please look over these solved cases?
C[C@@H](O)[C@H]1C(=O)N2C(C(=O)O)=C(S[C@H]3CC[S@@+]([O-])C3)S[C@H]12 [SULOPENEM] = 0.125
C[C@@H](O)[C@H]1C(=O)N2C(C(=O)O)=C(SCCNC=N)C[C@H]12 [IMIPENEM ANHYDROUS] = 0.03

Attention now shifts to the item below.
q: Which MIC reading was recorded for the compound Cc1ncc([N+](=O)[O-])n1CCO [METRONIDAZOLE] ?
a: 0.5
